- STUDY_TARGET: HepM GDH1 (Rattus norvegicus, UniProt P10860)
- Sequence (P10860 54-558): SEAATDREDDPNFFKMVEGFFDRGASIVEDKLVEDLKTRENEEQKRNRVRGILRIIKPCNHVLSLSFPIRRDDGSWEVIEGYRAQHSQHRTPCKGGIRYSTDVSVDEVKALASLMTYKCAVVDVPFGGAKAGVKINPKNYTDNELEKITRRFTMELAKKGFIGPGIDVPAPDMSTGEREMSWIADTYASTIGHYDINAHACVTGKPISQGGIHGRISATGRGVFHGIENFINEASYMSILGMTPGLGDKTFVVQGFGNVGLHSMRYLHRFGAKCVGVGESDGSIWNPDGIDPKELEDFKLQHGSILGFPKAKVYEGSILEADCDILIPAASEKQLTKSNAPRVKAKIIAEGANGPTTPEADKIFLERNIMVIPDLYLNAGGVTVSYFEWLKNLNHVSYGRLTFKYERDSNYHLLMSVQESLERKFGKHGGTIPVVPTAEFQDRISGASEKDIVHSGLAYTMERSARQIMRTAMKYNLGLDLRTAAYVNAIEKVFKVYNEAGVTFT
- ASSAY_COMMENT: GDH reverse (aminating) reaction activity in hepatoma mitochondria (HepM)
- Assay type: biochemical
- MEASUREMENT_CONDITIONS: HepM, pH 7.2, MWC equation, saturating ADP; read-out: Ki GTP
MEASUREMENT_KIND: pKi
Quick note: pKi values are minus log10 of concentrations in mol/L.

input: Please indicate pKi recorded for Nc1nc2c(ncn2[C@@H]2O[C@H](COP(=O)(O)OP(=O)(O)OP(=O)(O)O)[C@@H](O)[C@H]2O)c(=O)[nH]1 [GTP]
output: 4.55
